Entry source: ChEMBL document CHEMBL1156781

EXPERIMENTAL_DETAILS: Binding affinity to reindeer beta-lactoglobulin by fluorescence spectroscopy
Parameters: species or system Rangifer tarandus
ATTRIBUTE_MEASURED: Kd (µM)
Return type: number; implicit unit µM.

(Q) Which Kd value is on record for CC1=C(/C=C/c2ccc(/C=C/C(=O)O)cc2)C(C)(C)CCC1 ?
(A) 0.107

(Q) Queued: CC1=C(/C=C/C(C)=C/C=C/C(C)=C/CO)C(C)(C)CCC1
(A) 0.2

====

Please go through the items and note down their solubility.
EXPERIMENTAL_DETAILS: Solubility assessed as lowest drug level in which detectable aggregates formed by dynamic light scattering method
Type: physicochemical
Return type: number; implicit unit µM.

(Q) Which solubility value is on record for CC1=C(/C=C/C(C)=C/C=C/C(C)=C/C(=O)Nc2ccc(O)cc2)C(C)(C)CCC1 [FENRETINIDE] ?
(A) 100

(Q) Queued: C/C(=C\c1ccc(C(=O)O)cc1)c1ccc2c(c1)C(C)(C)CCC2(C)C
(A) 50

(Q) Queued: CC1=C(/C=C/c2ccc(/C=C/C(=O)O)cc2)C(C)(C)CCC1
(A) 100
